assayed_system: Disintegrin and metalloproteinase domain-containing protein 10 (Homo sapiens, UniProt O14672)
Sequence (O14672 whole entry): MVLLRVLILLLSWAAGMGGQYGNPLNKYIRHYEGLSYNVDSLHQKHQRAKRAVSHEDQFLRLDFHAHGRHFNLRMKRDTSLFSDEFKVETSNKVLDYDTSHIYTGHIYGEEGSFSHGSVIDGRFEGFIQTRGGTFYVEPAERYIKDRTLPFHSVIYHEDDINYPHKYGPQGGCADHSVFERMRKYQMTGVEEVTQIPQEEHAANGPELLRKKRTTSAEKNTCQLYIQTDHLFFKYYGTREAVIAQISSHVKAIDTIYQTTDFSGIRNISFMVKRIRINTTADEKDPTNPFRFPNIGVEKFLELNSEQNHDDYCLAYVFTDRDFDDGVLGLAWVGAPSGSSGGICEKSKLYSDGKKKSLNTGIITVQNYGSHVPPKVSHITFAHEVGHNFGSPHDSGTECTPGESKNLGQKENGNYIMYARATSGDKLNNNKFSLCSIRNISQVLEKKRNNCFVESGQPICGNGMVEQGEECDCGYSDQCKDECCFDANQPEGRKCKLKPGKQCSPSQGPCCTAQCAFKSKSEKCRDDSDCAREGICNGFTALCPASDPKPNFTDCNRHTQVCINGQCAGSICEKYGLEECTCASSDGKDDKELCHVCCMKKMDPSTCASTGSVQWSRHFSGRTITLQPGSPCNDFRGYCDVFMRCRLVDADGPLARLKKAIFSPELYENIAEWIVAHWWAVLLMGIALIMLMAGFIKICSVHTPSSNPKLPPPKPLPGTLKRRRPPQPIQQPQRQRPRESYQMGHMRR
experimental_details: ADAM10 inhibitors, peptide cleavage, dose response, biochemical, QFRET (AID 743254)
For each record, write down the corresponding pIC50.
One number for each entry, as −log10 of the molar value.

Consider the reported pIC50 for these compounds:
1. CCOC(=O)Cc1csc(NC(=O)c2sc3nc4cc(C)ccc4cc3c2N)n1 :: 5.11
2. O=C1OCCN1C(=O)C1=[N+](c2ccc(Br)cc2)N[C-](c2ccc(F)cc2)[C@H]1c1ccc([N+](=O)[O-])cc1 :: 4.73
3. O=c1[nH]c(=O)n(-c2ccc(Br)cc2)c(O)c1C=NCCN1CCCCC1 :: 4.93
4. Cc1nnc(=O)[nH]c1N=NCC1C=CC(=O)C([N+](=O)[O-])=C1 (configuration not stated) :: 4.16
5. O=C1/C(=C/c2cccs2)SC(=S)N1NS(=O)(=O)c1ccccc1 :: 4.16
6. Fc1c(F)c(C(F)(F)F)c(F)c(F)c1N=NCc1cccs1 :: 4.16
7. Cc1ccc(NCC(=O)NN=Cc2ccc(C(=O)O)cc2)cc1 :: 4.81
8. N#CCSc1nc2cc(C(=O)N3CCC(C(N)=O)CC3)ccc2c2nc3ccccc3n12 :: 4.74

For every listed record, write down its pIC50.
1. COc1ccc(-c2nnc(SCC(=O)Nc3cc(S(=O)(=O)N4CCCCC4)ccc3Cl)n2N)cc1
2. O=C(O)CCc1ccc(-c2ccccc2)n1-c1cccc(C(=O)O)c1
3. Cc1cc(C=C2C(=O)NC(=O)N(c3ccc(F)cc3)C2=O)c(C)n1-c1cccc(C(=O)O)c1
4. Cc1cc(/C=C(/C#N)c2nc3ccccc3[nH]2)c(C)n1-c1ccccc1C(=O)O

1. 5.11
2. 5.02
3. 4.71
4. 4.90
